# System: NCI-H322M
# Method Description: relative viability (nuclei count vs DMSO), 5 days (fraction); higher = more cells survive
# Condition Description: first compound 0.08 µM
Param label: returns T when relative viability < 0.8, returns F otherwise, including exact equality.

Compound	Assigned Label
COc1nc(C)cnc1NS(=O)(=O)c1cccnc1-c1ccc(-c2nnco2)cc1 [Zibotentan] + COc1cccc2cc(-c3nc([C@H]4CC[C@H](C(=O)O)CC4)n4ncnc(N)c34)[nH]c12 [OSI-027] (partner 0.5 µM)	T

**Query** Is relative viability strictly under 0.8 for the entry O=c1cc(-c2cccc3c2Sc2ccccc2S3)oc(N2CCOCC2)c1 + CC(=O)c1c(C)c2cnc(Nc3ccc(N4CCNCC4)cn3)nc2n(C2CCCC2)c1=O [Palbociclib] (partner 0.5 µM) ?
**Result** T

**Query** Is relative viability strictly under 0.8 for the entry COc1nc(C)cnc1NS(=O)(=O)c1cccnc1-c1ccc(-c2nnco2)cc1 [Zibotentan] + CC(C)C[C@H](NC(=O)[C@H](Cc1ccccc1)NC(=O)c1cnccn1)B(O)O [Bortezomib] (partner 0.002 µM) ?
**Result** F

**Query** Is relative viability strictly under 0.8 for the entry COc1nc(C)cnc1NS(=O)(=O)c1cccnc1-c1ccc(-c2nnco2)cc1 [Zibotentan] + CS(=O)(=O)N1CCN(Cc2cc3nc(-c4cccc5[nH]ncc45)nc(N4CCOCC4)c3s2)CC1 [Pictilisib] (partner 1 µM) ?
**Result** T

**Query** Is relative viability strictly under 0.8 for the entry O=c1cc(-c2cccc3c2Sc2ccccc2S3)oc(N2CCOCC2)c1 + O=C(c1cc(Cc2n[nH]c(=O)c3ccccc23)ccc1F)N1CCN(C(=O)C2CC2)CC1 [Olaparib] (partner 8 µM) ?
**Result** T

**Query** Is relative viability strictly under 0.8 for the entry O=c1cc(-c2cccc3c2Sc2ccccc2S3)oc(N2CCOCC2)c1 + Cc1cc(Nc2cc(N3CCN(C)CC3)nc(Sc3ccc(NC(=O)C4CC4)cc3)n2)n[nH]1 [Tozasertib] (partner 0.1 µM) ?
**Result** T

**Query** Is relative viability strictly under 0.8 for the entry COc1nc(C)cnc1NS(=O)(=O)c1cccnc1-c1ccc(-c2nnco2)cc1 [Zibotentan] + COc1cc2c(Oc3ccc(NC(=O)C4(C(=O)Nc5ccc(F)cc5)CC4)cc3F)ccnc2cc1OCCCN1CCOCC1 [Foretinib] (partner 0.25 µM) ?
**Result** F

**Query** Is relative viability strictly under 0.8 for the entry COc1nc(C)cnc1NS(=O)(=O)c1cccnc1-c1ccc(-c2nnco2)cc1 [Zibotentan] + C[C@]1(O)C[C@@H](c2nc(-c3ccc4ccc(-c5ccccc5)nc4c3)c3c(N)nccn32)C1 [Linsitinib] (partner 1 µM) ?
**Result** F

----------
# System: NCI-H2085
# Method Description: relative viability (nuclei count vs DMSO), 5 days (fraction); higher = more cells survive
# Condition Description: first compound 0.08 µM
Test Readout: relative viability
Answer field: number only, no words.

Compound	Test Readout	Result Number
O=c1cc(-c2cccc3c2Sc2ccccc2S3)oc(N2CCOCC2)c1 + CC1(C)CCC(c2ccc(Cl)cc2)=C(CN2CCN(c3ccc(C(=O)NS(=O)(=O)c4ccc(N[C@H](CCN5CCOCC5)CSc5ccccc5)c(S(=O)(=O)C(F)(F)F)c4)cc3)CC2)C1 [Navitoclax] (partner 0.5 µM)	relative viability	1.15
O=c1cc(-c2cccc3c2Sc2ccccc2S3)oc(N2CCOCC2)c1 + COc1cc2c(Oc3ccc(NC(=O)C4(C(=O)Nc5ccc(F)cc5)CC4)cc3F)ccnc2cc1OCCCN1CCOCC1 [Foretinib] (partner 0.25 µM)	relative viability	0.907
COc1nc(C)cnc1NS(=O)(=O)c1cccnc1-c1ccc(-c2nnco2)cc1 [Zibotentan] + CC(=O)c1c(C)c2cnc(Nc3ccc(N4CCNCC4)cn3)nc2n(C2CCCC2)c1=O [Palbociclib] (partner 0.5 µM)	relative viability	0.47
COc1nc(C)cnc1NS(=O)(=O)c1cccnc1-c1ccc(-c2nnco2)cc1 [Zibotentan] + Cc1nc(Nc2ncc(C(=O)Nc3c(C)cccc3Cl)s2)cc(N2CCN(CCO)CC2)n1 [Dasatinib] (partner 0.075 µM)	relative viability	0.24

**Query** Would you please give the reported relative viability of O=c1cc(-c2cccc3c2Sc2ccccc2S3)oc(N2CCOCC2)c1 + Nc1ncn([C@H]2C[C@H](O)[C@@H](CO)O2)c(=O)n1 [Decitabine] (partner 2 µM) with NCI-H2085?
**Result** 0.532

Reference for the values: the supplement of paper PMC10307832
